# Test system: OVCAR-8 ovarian
# TEST_METHOD_NOTES: NCI tumour cell line growth inhibition, 48 h
OBSERVABLE: TGI

Some molecules with recorded TGI:
O=C(N/N=C/c1ccc([N+](=O)[O-])cc1)Nc1ccc(Br)cc1 = > 100 µM
CC(C(N)C(=O)NC(C(=O)O)C1OC(n2ccc(=O)[nH]c2=O)C(O)C1O)C(O)c1ccc(O)cn1 (configuration not stated) = > 100 µM
COc1ccc(N=NC(=Nc2ccc(Cl)cc2)c2ccc(N(CCC#N)CCC#N)cc2)cc1 = > 100 µM
CCCCCCCCCC(=O)OCC1OC(n2cc(F)c(=O)[nH]c2=O)C(NC(=O)OCc2ccccc2)C(OC(=O)CCCCCCCCC)C1O (configuration not stated) = 80.1 µM
O=C1NNC2NC(=O)C3(NN2C1=O)c1ccccc1-c1ccccc13 (configuration not stated) = > 100 µM
O=C1C=CC(=O)N1c1cccc(N2C(=O)C=CC2=O)c1 = 5.17 µM
CC(=O)O[C@H](C[C@H](C(C)C)N(C)C(=O)[C@@H](NC(=O)[C@H]1CCCN1C)C(C)C)c1nc(C(=O)N[C@@H](Cc2ccccc2)C[C@H](C)C(=O)O)c(C)s1 = > 16.7 µM
CSc1nc2c(c(N3CCOCC3)n1)C(O)n1c(nc3ccccc31)S2 (configuration not stated) = > 100 µM

Known value: OVCAR-8 ovarian TGI of the molecule `CC(C)(C)c1ccc(OCCOCCOc2ccc(C(C)(C)C)cc2S(=O)(=O)Nc2ccc([N+](=O)[O-])cc2)c(S(=O)(=O)Nc2ccc([N+](=O)[O-])cc2)c1` equals > 100 µM

Known value: OVCAR-8 ovarian TGI of the molecule `CC(=O)OC[C@@]12Cc3ccc(C)c(O)c3[C@]1(C)[C@@H](OC(C)=O)[C@]1(O)[C@H]([C@@H](OC(=O)c3ccccc3)[C@@H](C)[C@H]1OC(C)=O)[C@H]2OC(C)=O` equals > 50 µM

Known value: OVCAR-8 ovarian TGI of the molecule `CCOC(=O)c1c(C)n(C)c2c1cc(O)c1[nH]c3c(c12)CCCC3` equals 66.3 µM

Known value: OVCAR-8 ovarian TGI of the molecule `O=C1c2ccccc2C(=O)C1C(c1ccc(F)cc1)C1C(=O)c2ccccc2C1=O` equals > 100 µM

Known value: OVCAR-8 ovarian TGI of the molecule `CCN(CC)c1ccc(/C=C/C(=O)c2cc(C(C)(C)C)c(O)c(C(C)(C)C)c2)cc1` equals > 100 µM

Known value: OVCAR-8 ovarian TGI of the molecule C/C=C1\CN2CCc3c([nH]c4ccccc34)C2C=C1CCO (configuration not stated) equals > 340 µM

Known value: OVCAR-8 ovarian TGI of the molecule `O=C(O/N=C1/CCC/C1=C\c1ccccc1)c1ccc(Cl)c(Cl)c1` equals > 100 µM

Known value: OVCAR-8 ovarian TGI of the molecule `Oc1cc(N2CCCC2)ccc1/C=N/N1C(=S)N(c2ccccc2)C(=Nc2ccccc2)C1=Nc1ccccc1` equals > 100 µM

Known value: OVCAR-8 ovarian TGI of the molecule `CC(C)C[C@H](NC(=O)[C@H](Cc1ccc(F)cc1)NC(=O)c1ccccn1)B(O)O` equals < 0.01 µM

Measured values drawn from PubChem BioAssay (NCI) for this set.
